Attribution: ChEMBL document CHEMBL5303573

# Experiment description: The drug is tested on Bacteroides dorei strain: DSM17855 for biotransformation. The drug concentrations were measured before and after a 12-h incubation by liquid-chromatography-coupled mass spectrometry (LC–MS)
# Condition set: phocaeicola dorei, 2 µM

Molecule	Bacterial Biotransformation
C#C[C@]1(OC(C)=O)CC[C@H]2[C@@H]3CCC4=C[C@@H](OC(C)=O)CC[C@@H]4[C@H]3CC[C@@]21C [ETHYNODIOL DIACETATE]	Compound NOT metabolized
c1ccc2[nH]c(-c3cscn3)nc2c1	Compound NOT metabolized
C[C@@H]1CC[C@H]2[C@@H](C)C(=O)O[C@@H]3O[C@@]4(C)CC[C@@H]1[C@]32OO4	Compound metabolized
C[C@]12CCC(=O)C=C1[C@@H]1C[C@@H]1[C@H]1[C@@H]3[C@@H]4C[C@@H]4[C@@]4(CCC(=O)O4)[C@@]3(C)CC[C@@H]12	Compound metabolized
